Target: Fes (UniProt P07332)
Sequence (P07332 whole entry, looked up): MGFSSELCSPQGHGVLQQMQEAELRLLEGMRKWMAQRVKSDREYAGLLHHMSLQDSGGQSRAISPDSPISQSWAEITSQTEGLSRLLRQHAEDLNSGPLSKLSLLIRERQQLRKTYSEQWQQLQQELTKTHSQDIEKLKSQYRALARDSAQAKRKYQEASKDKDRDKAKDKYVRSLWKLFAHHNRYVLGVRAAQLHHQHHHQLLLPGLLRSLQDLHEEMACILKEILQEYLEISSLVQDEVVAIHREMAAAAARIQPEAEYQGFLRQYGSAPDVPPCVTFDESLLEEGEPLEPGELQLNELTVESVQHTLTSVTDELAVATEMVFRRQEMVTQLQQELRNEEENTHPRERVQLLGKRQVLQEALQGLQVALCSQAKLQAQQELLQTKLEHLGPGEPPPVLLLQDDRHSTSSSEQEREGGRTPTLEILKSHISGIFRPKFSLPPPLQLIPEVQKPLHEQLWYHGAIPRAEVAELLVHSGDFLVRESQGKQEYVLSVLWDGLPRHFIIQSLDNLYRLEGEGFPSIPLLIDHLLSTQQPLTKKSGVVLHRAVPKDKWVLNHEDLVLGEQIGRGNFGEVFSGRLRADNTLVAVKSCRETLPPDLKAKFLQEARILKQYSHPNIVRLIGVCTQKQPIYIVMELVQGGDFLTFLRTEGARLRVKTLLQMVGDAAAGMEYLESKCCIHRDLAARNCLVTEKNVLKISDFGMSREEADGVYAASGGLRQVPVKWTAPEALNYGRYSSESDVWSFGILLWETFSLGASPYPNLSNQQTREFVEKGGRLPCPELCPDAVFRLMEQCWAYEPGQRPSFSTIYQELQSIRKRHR
Assay: phosphorylation enrichment, bacterial display (enrichment ratio); higher = better substrate or ligand; peptides without Tyr show the background;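 further: 11-residue human phosphosite peptides and single-mutation variants displayed on the E. coli surface, counted by deep sequencing, each peptide's frequency after selection divided by its frequency in the unselected input library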;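 further: frequency after pTyr selection over input frequency; kinase dosed for 20-30% of maximal phosphorylation in three min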
The entries below are paired with their reported phosphorylation enrichment.
parameter: phosphorylation enrichment

sequence.string | measurement
ADLLDYIKALN [HPRT1_Y81] | 1.2
IKIMGSSIRTI [IDS_Y490_Y490S] | 0.53
EILLSDLRTGY [TGM1_Y365_Y365D] | 0.845
QLCVSYPGGFT [PROS1_Y259_N258S_YF] | 1.47
GRTNIYNNKKD [SLC26A3_Y520_K521N] | 0.632
ISSLRYELLEE [TRPC6_Y896] | 1.17
RSIGEYDVLRG [PRKDC_Y2936] | 0.786
IGGHAYGDQFR [IDH1_Y135_R132G_YF] | 0.567
YGPPQYNMQYS [ERBB2IP_Y977_I979M] | 0.577
QAPPVYLDVLG [NTRK1_Y791] | 1.45
LTERGYSFTTK [ACTG1_Y198_T203K] | 2.1
YEEDSYVERSQ [RET_Y905_K907E] | 1.31
EEEPVYEAEPE [HCLS1_Y360] | 1.42
PADQAYSWFQH [NDST1_Y711_R709Q_YF] | 2.91
QFPDVYAREEV [CRX_Y67_YF] | 1.43
PSTFRYERGSR [INPPL1_Y663_P659S_YF] | 0.484
GDYYCYLAEVA [YWHAG_Y133_R132C] | 1.64
TLKDVYDDGKF [RPS6KA3_Y483_YF] | 1.04
KLIETYFSKNY [PLP1_Y50] | 0.732
TLNHQYDYTFD [CSNK1A1_Y292] | 0.964
RDMNAYIRPSP [MMAA_Y207] | 1.24
VDGSLYKTHPQ [HK1_Y417] | 0.556
FNVLQYVVPKV [EIF3A_Y382_E386K] | 0.797
